Please provide measured pIC50 for the entries that follow.
target-entity: CDK9/cyclin T1 (Homo sapiens, UniProt P50750)
Sequence (O60563 whole entry): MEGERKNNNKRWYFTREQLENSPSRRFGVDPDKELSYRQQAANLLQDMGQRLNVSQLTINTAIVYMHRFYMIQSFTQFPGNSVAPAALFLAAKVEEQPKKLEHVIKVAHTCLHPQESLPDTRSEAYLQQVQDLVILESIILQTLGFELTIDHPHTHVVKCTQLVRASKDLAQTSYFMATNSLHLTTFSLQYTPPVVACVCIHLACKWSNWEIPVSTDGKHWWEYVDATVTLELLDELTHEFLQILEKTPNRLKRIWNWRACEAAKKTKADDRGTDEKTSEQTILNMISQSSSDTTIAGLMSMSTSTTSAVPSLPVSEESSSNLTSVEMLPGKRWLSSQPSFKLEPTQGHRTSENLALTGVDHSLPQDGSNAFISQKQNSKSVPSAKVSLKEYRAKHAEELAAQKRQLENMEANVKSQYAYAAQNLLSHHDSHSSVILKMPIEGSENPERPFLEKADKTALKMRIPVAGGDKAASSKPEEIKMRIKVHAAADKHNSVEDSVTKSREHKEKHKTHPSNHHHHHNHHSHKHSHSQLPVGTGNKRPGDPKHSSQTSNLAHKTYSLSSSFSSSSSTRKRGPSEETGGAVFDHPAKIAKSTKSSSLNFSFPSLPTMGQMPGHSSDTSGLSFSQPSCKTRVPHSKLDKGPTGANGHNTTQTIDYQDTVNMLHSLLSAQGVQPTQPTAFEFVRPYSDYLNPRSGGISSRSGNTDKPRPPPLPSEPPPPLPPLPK
Sequence (P50750 whole entry): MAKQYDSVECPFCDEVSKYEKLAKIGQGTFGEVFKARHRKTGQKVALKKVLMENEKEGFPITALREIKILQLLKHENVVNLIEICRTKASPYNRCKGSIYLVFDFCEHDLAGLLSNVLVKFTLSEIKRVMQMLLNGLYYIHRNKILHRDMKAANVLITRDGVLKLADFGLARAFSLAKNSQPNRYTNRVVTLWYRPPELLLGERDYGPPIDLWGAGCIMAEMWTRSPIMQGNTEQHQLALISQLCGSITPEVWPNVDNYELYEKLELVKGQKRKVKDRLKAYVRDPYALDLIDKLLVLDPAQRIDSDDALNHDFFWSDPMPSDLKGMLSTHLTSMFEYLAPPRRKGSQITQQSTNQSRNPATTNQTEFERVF
protocol-summary: Inhibition of CDK9/CycT1 (unknown origin) expressed in HEK293 cells using GST-CTDII as substrate
Friendly reminder that pIC50 comes from taking -log10 of the concentration in mol/L.

Reported pIC50 for COc1ccccc1-c1cc(Nc2cccc(S(N)(=O)=O)c2)ncn1 : what is it?
7.28

And what about the compound COc1ccccc1-c1cc(Nc2ccc(C)c(NS(C)(=O)=O)c2)ncn1 ?
7.52

---

target-entity: CDK9/cyclin T1 (Homo sapiens, UniProt P50750)
protocol-summary: Inhibition of CDK9/CycT1 (unknown origin) using TAMRA-Rbtide and ATP as substrate after 1 hr
Format: protein-complex assay
outcome-measure: pIC50
Friendly reminder that pIC50 comes from taking -log10 of the concentration in mol/L.

Reported pIC50 for CCOP(=O)(CC)Cc1ccc(Nc2cc(-c3ccccc3OC)ncn2)cc1 (stereo not given) : what is it?
6.13

And what about the molecule CCOP(=O)(CC)Cc1cccc(Nc2cc(-c3cccc(N)c3)ncn2)c1 (stereo not given) ?
6.49

And what about the molecule O=[N+]([O-])c1cccc(-c2cc(Nc3cccc(P(=O)(O)O)c3)ncn2)c1 ?
5.39

And what about the molecule Nc1cccc(-c2cc(Nc3ccc(P(=O)(O)O)cc3)ncn2)c1 ?
5.48

Reference for the values: ChEMBL document CHEMBL3259517
